- Read-out: ABC Transporter (ABCB11), ABCB11 (gene 8647)
- ASSAY OVERVIEW: LTEA_HepaRG_ABCB11: Life Technologies and Expression Analysis (LTEA) Assay for ABC Transporter (ABCB11) using HepaRG (AID 2283463)
- TEST PARAMETERS: mRNA level, 48 h; actives raise or lower the signal
Calls of active or inactive are those of the source. Rule for the calls: active = hit-call score of the fitted dose curve at least 0.9, where 1 is the maximum; inactive = score below 0.9.
Could you please pick one outcome from this set? YES (active), NO (inactive)

Example cases with answers are listed next.
1. CC/C(=C\C(=N/O)C(N)=O)C(C)[N+](=O)[O-] (centres undefined) | NO
2. COc1ccc(/C=C/S(=O)(=O)NC(=O)c2ccc(C)cc2Cl)cc1 | YES
3. CC(C)CCO | NO
4. O=C1CCCCCN1 | NO
5. CCCCCCc1ccc(O)cc1O | NO
6. Cn1cnc([N+](=O)[O-])c1Sc1ncnc2nc[nH]c12 | YES
7. NC(=O)NO | NO
8. CCCCCCCCCCCCc1ccccc1 | NO
9. C[C@](N)(Cc1ccc(O)c(O)c1)C(=O)O | NO
10. C1=CCCC=CCCC=CCC1 | NO

Name the outcome recorded for `CCC(C)(C)C(=O)O[C@H]1C[C@@H](C)C=C2C=C[C@H](C)[C@H](CC[C@@H]3C[C@@H](O)CC(=O)O3)[C@H]21` in the assay.
YES

Name the outcome recorded for CC(O)CN(CCN(CC(C)O)CC(C)O)CC(C)O (centres undefined) in the assay.
NO

Name the outcome recorded for `CCCCCCCCO` in the assay.
NO

Name the outcome recorded for `O=C(OC[C@H]1O[C@@H](OC(=O)c2cc(O)c(O)c(OC(=O)c3cc(O)c(O)c(O)c3)c2)[C@H](OC(=O)c2cc(O)c(O)c(OC(=O)c3cc(O)c(O)c(O)c3)c2)[C@@H](OC(=O)c2cc(O)c(O)c(OC(=O)c3cc(O)c(O)c(O)c3)c2)[C@@H]1OC(=O)c1cc(O)c(O)c(OC(=O)c2cc(O)c(O)c(O)c2)c1)c1cc(O)c(O)c(OC(=O)c2cc(O)c(O)c(O)c2)c1` in the assay.
YES
